System: OVCAR-3 cells
assay_remarks: In vitro anti-proliferative activity assay in cancer cell line OVCAR-3 (CellTiter-Glo, 4- or 7-day)
Format: cell-based
test_settings: Homo sapiens, OVCAR-3, 168 h, 7-day assay; read-out: OVCAR-3 cellular antiproliferation assay IC50
metric: IC50

compound	IC50
C[Si]1(C)CCN(c2ncccc2C(=O)Nc2cccc(S(=O)(=O)N3CCC(F)(F)CC3)c2)C1	> 1 µM

Prompt line: Give OVCAR-3 cells IC50 for C[Si]1(C)CCN(c2cc(S(=O)(=O)NCCO)ccc2C(=O)Nc2cccc(OC[C@H](O)C(F)(F)F)n2)CC1
Response line: < 0.1 µM

Prompt line: Give OVCAR-3 cells IC50 for C[Si]1(C)CCN(c2cc(S(=O)(=O)NCCO)ccc2C(=O)Nc2cccc(OC[C@@H](O)C(F)(F)F)n2)CC1
Response line: < 0.1 µM

Prompt line: Give OVCAR-3 cells IC50 for C[Si]1(C)CCN(c2cc(NS(=O)(=O)NCCO)ccc2C(=O)Nc2cccc(OC[C@@H](O)C(F)(F)F)n2)CC1
Response line: 0.1 to 0.5 µM

Prompt line: Give OVCAR-3 cells IC50 for O=C(Nc1ccnc(C2CCC(F)(F)CC2)n1)c1ccc(NS(=O)(=O)CCO)cc1N1CC[C@@]2(C(F)F)C[C@H]2C1
Response line: 0.1 to 0.5 µM

###

# maps each entry to its IC50
target_desc: UniProt:Q8NI77

> print(dat)
                           structure.string  observed
1  O=C(Nc1ccnc(C2CCC(F)(F)CC2)n1)c1ccc(NS(=O)(=O)CCO)cc1N1CC[C@@]2(C(F)F)C[C@H]2C1  < 100 nM
2  C[Si]1(C)CCN(c2cc(NS(=O)(=O)CCO)ccc2C(=O)Nc2cccc(OC[C@H](O)C(F)(F)F)n2)CC1  < 100 nM
3  C[Si]1(C)CCN(c2cc(NS(=O)(=O)CCO)ccc2C(=O)Nc2ccnc(OCCC(F)(F)F)n2)CC1  < 100 nM

Please look at the following compound next.
Prompt line: Give UniProt:Q8NI77 IC50 for Cc1cc(NC(=O)c2ccc(S(=O)(=O)NCCO)cc2N2CC[C@]3(C(F)F)C[C@@H]3C2)nc(N2CCC(F)(F)CC2)n1
Response line: 100 to 500 nM

###

# maps each entry to its pIC50
Tested on: OVCAR-3 cells
assay_remarks: In vitro anti-proliferative activity assay in cancer cell line OVCAR-3 (CellTiter-Glo, 4- or 7-day)
Type: cell-based
test_settings: Homo sapiens, OVCAR-3, 168 h, 7-day assay; read-out: OVCAR-3 cellular antiproliferation assay IC50
pIC50: −log10 of the molar value.

Solved entries:
compound	pIC50
Cc1cc(NC(=O)c2cc(F)c(NS(=O)(=O)CCO)cc2N2CC[Si](C)(C)CC2)nc(N2CCC(F)(F)CC2)n1	6.30 to 7.00
Cc1cc(NC(=O)c2ccc(NS(=O)(=O)CCO)cc2N2CC[C@]3(F)CC[C@@H]3C2)nc(N2CCC(F)(F)CC2)n1 (single isomer, unassigned) [Example 50a]	6.30 to 7.00
CO[C@]12CCN(c3cc(NS(=O)(=O)CCO)ccc3C(=O)Nc3cc(C)nc(N4CCC(F)(F)CC4)n3)C[C@H]1C2	6.00 to 6.30
Cc1cc(NC(=O)c2cnc(NS(=O)(=O)CCO)cc2N2CC[Si](C)(C)CC2)nc(N2CCC(F)(F)CC2)n1	> 7.00
Cc1cc(NC(=O)c2ccc(NS(C)(=O)=O)cc2N2CC[C@]3(C(F)F)C[C@@H]3C2)nc(N2CCC(F)(F)CC2)n1	6.30 to 7.00

Please look at the following compound next.
Prompt line: What pIC50 value was documented for this compound, Cc1cc(NC(=O)c2ccc(NS(C)(=O)=O)cc2N2CC[C@@]3(C(F)F)C[C@H]3C2)nc(N2CCC(F)(F)CC2)n1 ?
Response line: 6.00 to 6.30

###

System: OVCAR-3 cells
assay_remarks: In vitro anti-proliferative activity assay in cancer cell line OVCAR-3 (CellTiter-Glo, 4- or 7-day)
Assay type: cell-based
test_settings: Homo sapiens, OVCAR-3, 168 h, 7-day assay; read-out: OVCAR-3 cellular antiproliferation assay IC50
# maps each entry to its IC50

Solved entries:
> print(dat)
                           structure.string  metric       observed
1  O=C(Nc1ccnc(N2CCC(F)(F)CC2)n1)c1ccc(NS(=O)(=O)CCO)cc1N1CC[C@]2(C(F)F)C[C@@H]2C1    IC50       < 100 nM
2  Cc1cc(NC(=O)c2c(F)cc(NS(=O)(=O)CCO)cc2N2CC[C@@]3(C(F)F)C[C@H]3C2)nc(N2CCC(F)(F)CC2)n1    IC50  100 to 500 nM
3  Cc1cc(NC(=O)c2ccc(NS(=O)(=O)CCO)cc2N2CC[C@@]3(C(F)F)C[C@H]3C2)nc(OC[C@H](O)C(F)(F)F)n1    IC50      > 1000 nM
4  Cc1cc(NC(=O)c2ccc(NS(=O)(=O)NCCO)cc2N2CC[C@@]3(C(F)F)C[C@H]3C2)nc(N2CCC(F)(F)CC2)n1    IC50      > 1000 nM

Prompt line: Give OVCAR-3 cells IC50 for C[Si]1(C)CCN(c2cc(NS(=O)(=O)CCO)cc(F)c2C(=O)Nc2cccc(OC[C@H](O)C(F)(F)F)n2)CC1
Response line: 100 to 500 nM

###

pIC50: −log10 of the molar value.
Data export: pIC50 values recorded with KIF18A (Homo sapiens (Human), UniProt Q8NI77).
Sequence (Q8NI77 1-367): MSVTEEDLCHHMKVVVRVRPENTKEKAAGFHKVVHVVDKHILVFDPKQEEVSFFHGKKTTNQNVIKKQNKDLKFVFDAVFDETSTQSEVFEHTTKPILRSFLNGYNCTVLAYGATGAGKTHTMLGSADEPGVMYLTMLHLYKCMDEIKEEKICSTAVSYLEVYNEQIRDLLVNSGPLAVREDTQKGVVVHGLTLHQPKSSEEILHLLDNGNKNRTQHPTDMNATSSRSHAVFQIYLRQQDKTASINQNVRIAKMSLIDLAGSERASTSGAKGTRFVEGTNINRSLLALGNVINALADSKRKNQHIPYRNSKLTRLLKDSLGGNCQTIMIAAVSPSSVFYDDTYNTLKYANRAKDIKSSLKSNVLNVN
Sequence (P02550 whole entry partner): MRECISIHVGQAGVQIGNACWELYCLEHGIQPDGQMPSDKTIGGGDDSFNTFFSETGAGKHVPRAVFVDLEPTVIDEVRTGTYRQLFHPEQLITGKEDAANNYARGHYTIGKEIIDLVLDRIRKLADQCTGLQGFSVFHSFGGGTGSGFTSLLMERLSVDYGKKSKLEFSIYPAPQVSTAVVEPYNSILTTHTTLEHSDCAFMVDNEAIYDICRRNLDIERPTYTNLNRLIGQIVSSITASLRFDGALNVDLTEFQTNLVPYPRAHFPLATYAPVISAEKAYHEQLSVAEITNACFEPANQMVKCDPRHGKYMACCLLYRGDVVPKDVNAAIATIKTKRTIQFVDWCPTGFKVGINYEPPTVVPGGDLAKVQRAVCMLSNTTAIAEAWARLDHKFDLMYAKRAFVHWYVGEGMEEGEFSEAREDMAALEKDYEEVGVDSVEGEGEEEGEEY
Sequence (P02554 whole entry partner): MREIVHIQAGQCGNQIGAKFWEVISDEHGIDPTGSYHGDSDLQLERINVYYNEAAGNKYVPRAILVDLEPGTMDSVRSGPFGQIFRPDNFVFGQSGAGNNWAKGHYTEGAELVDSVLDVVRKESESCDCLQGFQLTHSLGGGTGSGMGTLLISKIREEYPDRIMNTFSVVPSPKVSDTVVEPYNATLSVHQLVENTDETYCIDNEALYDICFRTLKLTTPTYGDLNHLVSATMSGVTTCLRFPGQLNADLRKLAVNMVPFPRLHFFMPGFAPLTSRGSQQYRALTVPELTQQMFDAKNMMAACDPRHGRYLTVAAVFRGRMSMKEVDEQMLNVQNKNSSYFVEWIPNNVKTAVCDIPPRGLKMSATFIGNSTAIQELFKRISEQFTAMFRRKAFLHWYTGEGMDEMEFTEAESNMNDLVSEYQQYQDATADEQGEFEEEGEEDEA

Solved entries:
compound	target_desc	observed
Cc1cc(NC(=O)c2ccc(NS(=O)(=O)CCO)cc2N2CC[C@@]3(F)CC[C@H]3C2)nc(N2CCC(F)(F)CC2)n1 (single isomer, unassigned) [Example 50b]	KIF18A (Homo sapiens (Human), UniProt Q8NI77)	> 7.00
O=C(Nc1cccc(N2CCC(F)(F)CC2)n1)c1c(F)cc(NS(=O)(=O)CCO)cc1N1CC[C@]2(C(F)F)C[C@@H]2C1	KIF18A (Homo sapiens (Human), UniProt Q8NI77)	> 7.00
Cc1cc(NC(=O)c2ccc(NS(=O)(=O)CCO)cc2N2CC[Si](C)(C)CC2)nc(N2CCC(F)(F)CC2)c1F	KIF18A (Homo sapiens (Human), UniProt Q8NI77)	> 7.00
Cc1cc(NC(=O)c2ccc(NS(=O)(=O)NCCO)cc2N2CC[C@]3(C)C[C@@H]3C2)nc(N2CCC(F)(F)CC2)n1	KIF18A (Homo sapiens (Human), UniProt Q8NI77)	> 7.00
Cc1cc(NC(=O)c2ccc(NS(=O)(=O)NCCO)cc2N2CC[C@]3(C(F)F)C[C@@H]3C2)nc(N2CCC(F)(F)CC2)n1	KIF18A (Homo sapiens (Human), UniProt Q8NI77)	> 7.00

Please look at the following compound next.
Prompt line: Give KIF18A (Homo sapiens (Human), UniProt Q8NI77) pIC50 for Cc1cc(NC(=O)c2c(F)cc(NS(=O)(=O)CCO)c(F)c2N2CC[Si](C)(C)CC2)nc(N2CCC(F)(F)CC2)n1
Response line: 6.00 to 6.30

###

assay_remarks: Bone marrow concentration in 28 day OVCAR-3 xenograft study
Assay type: in vivo, mice
test_settings: NOD SCID, mouse, 10 mg/kg QD oral, 28 day study, read-out: Bone marrow concentration at 24 h post-last dose
metric: concentration at 24 h (ng/g)
Write it as a number; the unit ng/g goes unstated.

Prompt line: What concentration at 24 h value was documented for this molecule, Cc1cc(NC(=O)c2ccc(NS(=O)(=O)CCO)cc2N2CC[C@@]3(C(F)F)C[C@H]3C2)nc(N2CCC(F)(F)CC2)n1 (single isomer, unassigned) [Example 29b] ?
Response line: 210

###

Tested on: OVCAR-3 cells
assay_remarks: In vitro anti-proliferative activity assay in cancer cell line OVCAR-3 (CellTiter-Glo, 4- or 7-day)
Type: cell-based
test_settings: Homo sapiens, OVCAR-3, 168 h, 7-day assay; read-out: OVCAR-3 cellular antiproliferation assay IC50
pIC50: −log10 of the molar value.
metric: pIC50

Solved entries:
compound	target_desc	pIC50
Cc1cc(NC(=O)c2c(F)cc(NS(=O)(=O)CCO)cc2N2CC[C@]3(C(F)F)C[C@@H]3C2)nc(N2CCC(F)(F)CC2)n1	OVCAR-3 cells	< 6.00
Cc1cc(NC(=O)c2c(F)cc(NS(=O)(=O)CCO)cc2N2CC[C@]3(C)C[C@@H]3C2)nc(N2CCC(F)(F)CC2)n1 (single isomer, unassigned) [Example 31a]	OVCAR-3 cells	6.30 to 7.00
C[Si]1(C)CCN(c2cc(NS(=O)(=O)CCO)ccc2C(=O)Nc2cccc(C3(C(F)(F)F)N=N3)c2)CC1	OVCAR-3 cells	6.30 to 7.00
O=C(Nc1cccc(N2CCC(F)(F)CC2)n1)c1c(F)cc(NS(=O)(=O)CCO)cc1N1CC[C@]2(C(F)F)C[C@@H]2C1	OVCAR-3 cells	6.00 to 6.30
O=C(Nc1ccnc(N2CCC(F)(F)CC2)n1)c1ccc(NS(=O)(=O)CCO)cc1N1CC[C@@]2(C(F)F)C[C@H]2C1	OVCAR-3 cells	6.30 to 7.00
Cc1cc(NC(=O)c2c(F)cc(NS(=O)(=O)CCO)cc2N2CC[Si](C)(C)CC2)nc(N2CCC(F)(F)CC2)n1	OVCAR-3 cells	> 7.00

Prompt line: What pIC50 value was documented for this compound, Cc1cc(NC(=O)c2ccc(NS(=O)(=O)CCO)cc2N2CC[C@]3(C(F)F)C[C@@H]3C2)nc(OC[C@@H](O)C(F)(F)F)n1 ?
Response line: < 6.00

Prompt line: What pIC50 value was documented for this compound, Cc1cc(NC(=O)c2ncc(NS(=O)(=O)CCO)nc2N2CC[Si](C)(C)CC2)nc(N2CCC(F)(F)CC2)n1 ?
Response line: < 6.00

Prompt line: What pIC50 value was documented for this compound, CO[C@@]12CCN(c3cc(NS(=O)(=O)CCO)ccc3C(=O)Nc3cc(C)nc(N4CCC(F)(F)CC4)n3)C[C@@H]1C2 ?
Response line: 6.00 to 6.30

Prompt line: What pIC50 value was documented for this compound, C[Si]1(C)CCN(c2cc(NS(=O)(=O)CCO)ccc2C(=O)Nc2cncc(N3CCC(F)(F)CC3)n2)CC1 ?
Response line: > 7.00
